- target under test: Interleukin-23 receptor (Homo sapiens)
- Sequence (Q5VWK5 whole entry): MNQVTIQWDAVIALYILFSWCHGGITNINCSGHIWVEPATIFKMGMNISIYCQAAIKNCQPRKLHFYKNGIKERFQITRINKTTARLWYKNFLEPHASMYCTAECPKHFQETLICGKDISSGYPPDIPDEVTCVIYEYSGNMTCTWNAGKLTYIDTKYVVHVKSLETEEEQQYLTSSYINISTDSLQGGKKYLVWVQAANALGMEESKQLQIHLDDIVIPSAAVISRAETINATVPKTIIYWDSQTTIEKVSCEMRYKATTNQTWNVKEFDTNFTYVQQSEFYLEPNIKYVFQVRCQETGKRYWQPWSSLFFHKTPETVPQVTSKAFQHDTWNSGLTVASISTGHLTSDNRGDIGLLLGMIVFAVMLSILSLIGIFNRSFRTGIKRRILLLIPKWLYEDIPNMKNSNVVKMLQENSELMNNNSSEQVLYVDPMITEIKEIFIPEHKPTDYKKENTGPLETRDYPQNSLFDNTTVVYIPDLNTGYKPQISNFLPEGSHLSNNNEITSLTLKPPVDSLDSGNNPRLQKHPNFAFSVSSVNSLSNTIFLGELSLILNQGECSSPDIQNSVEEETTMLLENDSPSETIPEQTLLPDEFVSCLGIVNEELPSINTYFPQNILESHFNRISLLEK
- assay comment: Inhibition of interleukin-23 binding to human interleukin-23 receptor incubated for 2 hrs by competitive binding ELISA
Parameter IC50: see the listing below.

These solved cases illustrate the format of a correct answer.
# smiles string, reported
records = [
    ("CC(=O)NCCCC[C@H](NC(=O)[C@](C)(CCCCN)NC(=O)NC(=O)[C@H](Cc1ccc(OCCN)cc1)NC(=O)[C@@H]1CSCC[C@H](NC(C)=O)C(=O)N[C@@H](CCC(N)=O)C(=O)N[C@@H]([C@@H](C)O)C(=O)N[C@@H](Cc2c[nH]c3ccccc23)C(=O)N[C@@H](CCC(N)=O)C(=O)N1)C(=O)N[C@@H](CC(N)=O)C(=O)NCC(N)=O", "> 3 µM"),
    ("CC(=O)N[C@H](C(=O)N[C@@H](C)C(=O)N[C@@H](CC(=O)O)C(=O)N[C@@H](Cc1c[nH]c2ccccc12)C(=O)N[C@H](C(=O)N[C@@H](CS)C(=O)N[C@@H](Cc1ccc(O)cc1)C(=O)N[C@@H](Cc1c[nH]c2ccccc12)C(=O)N[C@@H](Cc1cnc[nH]1)C(=O)N[C@H](C(=O)N[C@@H](Cc1ccccc1)C(=O)NCC(N)=O)[C@@H](C)O)C(C)C)C(C)(C)S", "1 to 10 µM"),
]

Switching to the query record.
Measured IC50, "CSC[C@H](NC(=O)[C@H](CCC(N)=O)NC(=O)[C@H](Cc1c[nH]c2ccccc12)NC(=O)[C@@H](NC(=O)[C@H](CCCNC(=N)N)NC(=O)[C@H](C)NC(C)=O)[C@@H](C)O)C(=O)N[C@@H](Cc1ccc(O)cc1)C(=O)N[C@@H](Cc1c[nH]c2ccccc12)C(=O)N[C@@H](CCCNC(=N)N)C(=O)N[C@@H](CCCCN)C(=O)N[C@@H](Cc1ccccc1)C(=O)NCC(=O)NCCOCC(=O)N[C@H](CCCCN)C(N)=O" : 7.57 µM

* * *

- target under test: Interleukin-23 receptor (Homo sapiens, UniProt Q5VWK5)
- Sequence (Q5VWK5 whole entry): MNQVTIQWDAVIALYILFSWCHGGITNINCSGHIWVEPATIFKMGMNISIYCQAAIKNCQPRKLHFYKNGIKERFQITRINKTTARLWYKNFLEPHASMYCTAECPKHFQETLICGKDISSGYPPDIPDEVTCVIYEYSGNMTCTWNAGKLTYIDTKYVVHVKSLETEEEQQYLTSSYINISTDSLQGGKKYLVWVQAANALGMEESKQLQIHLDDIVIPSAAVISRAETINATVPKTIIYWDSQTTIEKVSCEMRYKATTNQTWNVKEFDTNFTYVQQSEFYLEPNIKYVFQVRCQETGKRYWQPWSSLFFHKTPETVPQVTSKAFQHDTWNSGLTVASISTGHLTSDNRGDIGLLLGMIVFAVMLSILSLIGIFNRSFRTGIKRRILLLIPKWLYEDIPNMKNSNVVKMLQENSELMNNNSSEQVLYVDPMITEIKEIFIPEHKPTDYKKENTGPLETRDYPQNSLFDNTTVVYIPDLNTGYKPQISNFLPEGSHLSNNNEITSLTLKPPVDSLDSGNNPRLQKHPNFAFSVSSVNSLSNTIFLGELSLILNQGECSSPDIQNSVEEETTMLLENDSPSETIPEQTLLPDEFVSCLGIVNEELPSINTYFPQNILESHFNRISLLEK
- assay comment: Inhibition of interleukin-23 binding to human interleukin-23 receptor incubated for 2 hrs by competitive binding ELISA
pIC50: −log10 of the molar value. Where a SMILES comes first, the peptide text is derived from it.
Parameter pIC50: see the listing below.

These solved cases illustrate the format of a correct answer.
# compound, target under test, pIC50
measured = [
    ("CC(=O)NCCCC[C@H](NC(=O)[C@](C)(CCCCN)NC(=O)[C@H](Cc1ccc2ccccc2c1)NC(=O)[C@H](CCc1ccc(O)cc1)NC(=O)[C@@H]1CSCC[C@H](NC(C)=O)C(=O)N[C@@H](CCC(N)=O)C(=O)N[C@@H]([C@@H](C)O)C(=O)N[C@@H](Cc2c[nH]c3ccccc23)C(=O)N[C@@H](CCC(N)=O)C(=O)N1)C(=O)N[C@@H](CC(N)=O)C(=O)NCC(N)=O", "Interleukin-23 receptor (Homo sapiens, UniProt Q5VWK5)", "< 6.00"),
    ("CC(=O)N[C@H]1CCSC[C@@H](C(=O)N[C@@H](Cc2ccc(OCCN)cc2)C(=O)N[C@@H](Cc2ccc3ccccc3c2)C(=O)NC(C)(C)C(=O)N[C@@H](CCC(=O)O)C(=O)N[C@@H](CC(N)=O)C(=O)NCC(N)=O)NC(=O)[C@H](CCC(N)=O)NC(=O)[C@H](Cc2c[nH]c3ccccc23)NC(=O)[C@H]([C@@H](C)O)NC(=O)[C@H](CCC(N)=O)NC1=O", "Interleukin-23 receptor (Homo sapiens, UniProt Q5VWK5)", "> 8.00"),
]

Switching to the query record.
CC(C)[C@H](NC(=O)[C@H](Cc1cnc[nH]1)NC(=O)[C@H](Cc1c[nH]c2ccccc12)NC(=O)[C@H](Cc1ccc(O)cc1)NC(=O)[C@H](CS)NC(=O)[C@H](CCC(=O)O)NC(=O)[C@H](Cc1c[nH]c2ccccc12)NC(=O)[C@H](CC(N)=O)NC(=O)CNC(=O)[C@@H](N)CS)C(=O)N[C@@H](Cc1ccc(O)cc1)C(=O)NCC(N)=O (H-CGNWECYWHVYG-NH2) tested on Interleukin-23 receptor (Homo sapiens, UniProt Q5VWK5) gave pIC50: < 6.00
